system: OVCAR-5 ovarian; experiment: NCI tumour cell line growth inhibition, 48 h
endpoint-label: TGI

molecule | endpoint-label | readout-value
CCn1c(-c2nonc2N)nc2ccncc21 | TGI | > 25 µM
CCOC(=O)c1sc2ncnc(N)c2c1C | TGI | > 100 µM
C[C@H]1OC(=O)[C@@H]2N=NN(Cc3ccccc3)[C@H]12 | TGI | > 100 µM
O=C(/C=C/c1ccc2c(c1)OCO2)Cc1nc2ccccc2[nH]c1=O | TGI | > 100 µM
C(=C\c1ccccc1)/COc1ccccc1C(N1CCOCC1)n1nc2ccccc2n1 (configuration not stated) | TGI | 44.9 µM

Quickly give me recorded TGI for CC(C)(C)OC(=O)NC1CCCC1=O (configuration not stated)
> 100 µM

Quickly give me recorded TGI for COc1cc2nc(-c3ccc(C(F)(F)F)cc3)cc(OCCCN3CCCC3)c2cc1OC
18.9 µM
